Taken from patent US20240287124A1.

Tested on: HIV-1 wild-type (R8) virus
Assay: Viral KINetics in Green cells (VIKING) assay, HIV-1 replication in MT4-GFP reporter cells
Assay type: cell-based
Conditions: Human immunodeficiency virus 1, 10% normal human serum, MT4-GFP cells, HIV-1 wild-type (R8); read-out: Viking (10% NHS), IC50
Value kind: IC50
Please state the number and follow it with the unit.

query: Which IC50 is listed for C#C[C@]1(COC(=O)OCCCCCCCC)O[C@@H](n2ccc3c(N)nc(Cl)nc32)C[C@@H]1O [Example 39] ?
result: 3 nM

query: Which IC50 is listed for C#C[C@]1(CO)O[C@@H](n2ccc3c(N)nc(Cl)nc32)C[C@@H]1OC(=O)OCc1cccn(C)c1=O [Example 67] ?
result: 6.4 nM

query: Which IC50 is listed for C#C[C@]1(CO)O[C@@H](n2ccc3c(N)nc(Cl)nc32)C[C@@H]1OC(=O)C(CC)CC [Example 45] ?
result: 143 nM

query: Which IC50 is listed for C#C[C@]1(COC(=O)c2ccccc2)O[C@@H](n2ccc3c(N)nc(Cl)nc32)C[C@@H]1OC(=O)c1ccccc1 [Example 6] ?
result: 44 nM

query: Which IC50 is listed for C#C[C@]1(COC(=O)[C@@H](C)c2ccccc2)O[C@@H](n2ccc3c(N)nc(Cl)nc32)C[C@@H]1OC(=O)[C@@H](C)c1ccccc1 [Example 103] ?
result: 405 nM

query: Which IC50 is listed for C#C[C@]1(CO)O[C@@H](n2ccc3c(NC(=O)c4ccccc4)nc(Cl)nc32)C[C@@H]1O [Example 19] ?
result: 382 nM

query: Which IC50 is listed for C#C[C@]1(CO)O[C@@H](n2ccc3c(N)nc(Cl)nc32)C[C@@H]1OCOC(=O)c1ccccc1 [Example 139] ?
result: 3.6 nM

query: Which IC50 is listed for C#C[C@]1(COC(=O)OCc2ccccc2)O[C@@H](n2ccc3c(NC(=O)CCc4ccccc4)nc(Cl)nc32)C[C@@H]1OC(=O)OCc1ccccc1 [Example 203] ?
result: 47 nM

query: Which IC50 is listed for C#C[C@]1(CO)O[C@@H](n2ccc3c(N)nc(Cl)nc32)C[C@@H]1OC(=O)OCCCCCCC [Example 153] ?
result: 3.8 nM

query: Which IC50 is listed for C#C[C@]1(COC(=O)OCC23CC(C2)C3)O[C@@H](n2ccc3c(N)nc(Cl)nc32)C[C@@H]1O [Example 168] ?
result: 3.9 nM

query: Which IC50 is listed for C#C[C@]1(CO)O[C@@H](n2ccc3c(N)nc(Cl)nc32)C[C@@H]1OC(=O)OCCC12CC(C1)C2 [Example 111] ?
result: 5.2 nM

query: Which IC50 is listed for C#C[C@]1(CO)O[C@@H](n2ccc3c(N)nc(Cl)nc32)C[C@@H]1OC(=O)CCCC [Example 3] ?
result: 3.7 nM

query: Which IC50 is listed for C#C[C@]1(COC(=O)CCCCCCCCCCC)O[C@@H](n2ccc3c(N)nc(Cl)nc32)C[C@@H]1O [Example 90] ?
result: 3.9 nM

query: Which IC50 is listed for C#C[C@]1(CO)O[C@@H](n2ccc3c(N)nc(Cl)nc32)C[C@@H]1OC(=O)CCCCCCCCCCC [Example 25] ?
result: 3.5 nM
